- Test system: DU-145 prostate
- TEST_DESCRIPTION: NCI tumour cell line growth inhibition, 48 h
METRIC: TGI

Some compounds with recorded TGI:
COc1ccc2c(c1)C1c3ccccc3CCN1CCC2 (stereo not drawn) :: > 100 µM
CC(=O)c1sc2n(C)c(=O)c3ccccc3[n+]2c1C :: > 100 µM
C[n+]1cc2cc3c(cc2c2ccccc21)OCO3 :: 25.9 µM

Turning now to a further compound:
Exercise: Recorded TGI of CN(C(=O)c1cc2c(s1)sc1c(=O)n(C)c3ccccc3c12)c1ccccc1 , please.
Key: > 100 µM

###

- Tested on: A498 renal
- TEST_DESCRIPTION: NCI tumour cell line growth inhibition, 48 h
METRIC: TGI (µM)
Entry rule: numbers only, all in µM.

Some molecules with recorded TGI:
COC1=CC(=O)c2c(n[nH]c2CCNC(=O)OCc2ccccc2)C1=O :: 32.7
CC(C)(C)OC(=O)NCC(=O)N(CCc1ccc(Cl)c(Cl)c1)CCN1CCCC1 :: 32.8
COc1cccc2c1C(=O)c1c(O)c3c(c(O)c1C2=O)C[C@@](O)(C(C)=O)C[C@@H]3OC1CC(O)C(O)C(C)O1 (stereo partly specified) :: 9.01
Cc1cccc(/C=C2/C(=O)Nc3ccccc32)n1 :: 46.9
Cc1[nH]c(=O)nc(N/N=C/c2ccc(Cl)cc2)c1C(=O)Nc1ccc(Cl)cc1 :: 57.2

Exercise: For A498 renal, provide TGI of CCCCCCCCc1ccc(CCC(N)(CO)CO)cc1 please.
Key: 22.6

Exercise: For A498 renal, provide TGI of COc1ccc(C2N3CCCCC3[C@@H]3c4[nH]c5ccccc5c4CCN23)c(OC)c1 (stereo partly specified) please.
Key: 30.1

Exercise: For A498 renal, provide TGI of O=S(=O)([O-])[O-].[Fe+2].[OH2+]c1c(Cl)cc(Cl)cc1/C=N/Nc1ccccn1 please.
Key: 4.5

###

- Test system: MCF7 breast
- TEST_DESCRIPTION: NCI tumour cell line growth inhibition, 48 h
METRIC: GI50

C=C1[C@@H](O)C[C@H]2C(C)(C)C[C@H](Cl)C[C@]2(C)[C@H]1C[C@H](O)[C@H]1CC(=O)NC1=O :: < 10 nM
C=C(CN(C)Cc1ccccc1)c1ccc(C(=O)Nc2ccccc2N)cc1 :: 16800 nM
C[n+]1cc2cc3c(cc2c2ccccc21)OCO3 :: 2610 nM
CC(=O)OC1CC2(O)C(CCC3(C)C(c4ccc(=O)oc4)CCC32O)C2(C)CCC(OC3OC(CO)C(O)C(O)C3O)C=C12 (stereo not drawn) :: 18.3 nM
O=C(NCCNC(=O)c1ccc(F)cc1)Nc1ccc(-n2cc(-c3ccncc3)c(-c3ccc(Cl)c(O)c3)n2)cc1 :: 323 nM

Exercise: Recorded GI50 of O=c1oc2c(cc1-c1ccccc1)C(O)Oc1ccccc1-2 (stereo not drawn) , please.
Key: 4290 nM

###

- Tested on: SK-OV-3 ovarian
- TEST_DESCRIPTION: NCI tumour cell line growth inhibition, 48 h
METRIC: TGI

Some molecules with recorded TGI:
Clc1ccc(N/N=C(\c2ccccc2)c2ccccn2)nc1 :: > 100 µM
COc1ccc(Nc2ncc(-c3ccccc3)o2)cc1OC :: > 25 µM
COc1cccc(N2C(=O)C3c4[nH]c5ccc(C)cc5c4C4CCC(C)CC4C3C2=O)c1 (stereo not given) :: > 100 µM

Exercise: Recorded TGI of N#Cc1nc(-c2ccc(-c3nc(C#N)c(N)o3)cc2)oc1N , please.
Key: > 10 µM

Exercise: Recorded TGI of COC(=O)/C=C/c1ccc2c(c1)[C@H](C(=O)OC)[C@@H](c1ccc(O)cc1)O2 , please.
Key: > 100 µM

###

- Test system: HS 578T breast
- TEST_DESCRIPTION: NCI tumour cell line growth inhibition, 48 h
METRIC: TGI (µM)
Entry rule: numbers only, all in µM.

Some compounds with recorded TGI:
CC(=O)N1N=C(c2ccc(Nc3nc(Nc4ccc(F)cc4)nc(Nc4ccc(Cl)cc4)n3)cc2)CC1c1ccc(N(C)C)cc1 (configuration not stated) :: 97.9
COc1cc(/C=C2\CC(C)C/C(=C\c3ccc(O)c(OC)c3)C2=O)ccc1O (configuration not stated) :: 10.4
CCN(CC)c1ccc2cc(-c3csc(C)n3)c(=O)oc2c1 :: 67.5
O=C(Nc1nc(-c2ccccc2)cs1)c1cc(O)c(O)c(O)c1 :: 83.8

Exercise: For HS 578T breast, provide TGI of CC(=O)OC1CC2(O)C(CCC3(C)C(c4ccc(=O)oc4)CCC32O)C2(C)CCC(OC3OC(CO)C(O)C(O)C3O)C=C12 (configuration not stated) please.
Key: 0.701

Exercise: For HS 578T breast, provide TGI of O=C1c2ccccc2C(=O)c2sc(Nc3ccc(Cl)cc3)nc21 please.
Key: 14.1

###

- Tested on: UACC-257 melanoma
- TEST_DESCRIPTION: NCI tumour cell line growth inhibition, 48 h; in the data active means GI50 below about 0.43 µM; inactive means the rest
Choose the fitting class; nothing outside active, inactive is accepted.

Field: example entries. Status: answers known.
CC(=O)N1N=C(c2ccc(Nc3nc(Nc4ccc(F)cc4)nc(Nc4ccc(Cl)cc4)n3)cc2)CC1c1ccc(N(C)C)cc1 (stereo not drawn) :: inactive
Cc1cc(S(=O)(=O)Nc2nc3ccccc3[nH]2)c(SCc2ccccc2)cc1Cl :: inactive
COc1ccc(Nc2ncc(-c3ccccc3)o2)cc1OC :: inactive
COc1ccc(C2CC(c3cccc(OC)c3)=NN2C(=O)c2cc(OC)c(OC)c(OC)c2)cc1 (stereo not drawn) :: inactive
Cn1ccc2c3c(=O)cc[nH]c3ccc21 :: inactive
Cc1ccc(NC(=O)N2CCCCC2)cc1[N+](=O)[O-] :: inactive
C[C@@H]1CC[C@@H]2[C@@H]1[C@H](OC(=O)c1ccc3ccccc3c1)[C@]1(C3CCCCC3)C[C@@H](OC(=O)CO)[C@@]2(C)O1 :: inactive
COc1cc2c(c(OC)c1OC)C(=O)c1c-2n(CCCN=[N+]=[N-])c(=O)c2cc([N+](=O)[O-])ccc12 :: inactive
COc1ccc(C2SCC(=O)N2NC(=O)C(O)c2ccccc2)cc1 (stereo not drawn) :: inactive
N=C1N=C(N)S/C1=C\c1ccc2ncccc2c1 :: inactive

Exercise: Which outcome was entered for the molecule CC(=O)OC1CC2(O)C(CCC3(C)C(c4ccc(=O)oc4)CCC32O)C2(C)CCC(OC3OC(CO)C(O)C(O)C3O)C=C12 (stereo not drawn) in this test?
Key: active

Exercise: Which outcome was entered for the molecule COc1cc2oc(-c3cccc(C(=O)Nc4ccc(C)cc4)c3)cc(=O)c2c(OC)c1OC in this test?
Key: inactive

Exercise: Which outcome was entered for the molecule NC(=NCCO)c1ccc(N2CCCN(c3ccc(C(N)=NCCO)cc3)CC2)cc1 in this test?
Key: inactive

Exercise: Which outcome was entered for the molecule CCCC(CCC)Oc1ccc(CCCC2=C(O)c3ccccc3C(=O)C2=O)cc1 in this test?
Key: inactive

Exercise: Which outcome was entered for the molecule CNC12C3C4C1C1C2C3C41C(=O)N[C@H](C(=O)N(C)[C@H](C[C@@H](OC(C)=O)c1nc(C(=O)N[C@@H](Cc2ccccc2)C[C@H](C)C(=O)OC)cs1)C(C)C)C1CC1 (stereo partly drawn) in this test?
Key: inactive

Exercise: Which outcome was entered for the molecule COC(=O)c1ccc(NC(N)=NCC(C)(C)COc2ccc(C(F)(F)F)cc2)nc1 in this test?
Key: inactive

Exercise: Which outcome was entered for the molecule CC(C)c1ccc(/C=N/N=C(N)N)cc1 in this test?
Key: inactive

Exercise: Which outcome was entered for the molecule COc1ccccc1Nc1nc2ccccc2c2occc12 in this test?
Key: inactive

###

- Test system: CAKI-1 renal
- TEST_DESCRIPTION: NCI tumour cell line growth inhibition, 48 h; in the data active means GI50 below about 0.43 µM; inactive means the rest
Choose the fitting class; nothing outside active, inactive is accepted.

OCc1ncc(-c2ccccc2)s1 :: inactive
O=C(Nc1cc(C(F)(F)F)cc(C(F)(F)F)c1)Nc1ccc(OCc2nnc(-c3ccc(Cl)cc3)o2)c(F)c1 :: inactive
O=C(Nc1nc(-c2ccccc2)cs1)c1cc(O)c(O)c(O)c1 :: inactive
CCOc1ccc(NC(=O)c2cc3ccccc3cc2O)cc1 :: inactive

Exercise: Which outcome was entered for the compound COc1cc2oc(-c3cccc(C(=O)Nc4ccc(C)cc4)c3)cc(=O)c2c(OC)c1OC in this test?
Key: active

Exercise: Which outcome was entered for the compound C[CH2][Ge]([CH2]C)([CH2]C)[O]C(=O)C([O][Ge]([CH2]C)([CH2]C)[CH2]C)c1ccccc1 (stereo unspecified) in this test?
Key: inactive

###

- Tested on: SR leukemia
- TEST_DESCRIPTION: NCI tumour cell line growth inhibition, 48 h
METRIC: TGI

Some compounds with recorded TGI:
O=[N+]([O-])c1cc2ccc1OCc1cccc(n1)COc1ccc(cc1[N+](=O)[O-])C=NCCCCCCCCN=C2 :: > 100 µM
COc1cc(/C=C2\CC(C)C/C(=C\c3ccc(O)c(OC)c3)C2=O)ccc1O (stereo not drawn) :: > 25.5 µM
CC(=O)OC1CC2(O)C(CCC3(C)C(c4ccc(=O)oc4)CCC32O)C2(C)CCC(OC3OC(CO)C(O)C(O)C3O)C=C12 (stereo not drawn) :: 0.0541 µM
Nc1ncnc2c1ncn2[C@@H]1C[C@H](NO)[C@@H](O)[C@H]1O :: > 100 µM
C=CC[C@@]12CCC(=O)C=C1CCCC2=O :: > 100 µM
CC(=O)OCC1OC(n2c(=S)n(-c3ccccc3)c(=O)c3cc(Br)ccc32)C(OC(C)=O)C(OC(C)=O)C1OC(C)=O (stereo not drawn) :: > 100 µM
O=c1cc(-c2ccc3ccccc3c2)[nH]c2ncccc12 :: 6.1 µM
N/N=C(/CC(O)(C(F)(F)F)C(F)(F)F)c1ccccc1 :: > 10 µM
CCOc1ccc(N=Nc2ccc(-c3ccc(N=Nc4c(O)ccc5cc(S(=O)(=O)O)cc(S(=O)(=O)O)c45)cc3)cc2)cc1 :: > 100 µM
Cc1cccc(/C=C2/C(=O)Nc3ccccc32)n1 :: 7.3 µM

Exercise: Recorded TGI of O=c1oc2c(cc1-c1ccccc1)C(O)Oc1ccccc1-2 (stereo not drawn) , please.
Key: 13.7 µM

Exercise: Recorded TGI of Cc1cc(Cl)ccc1N1C(=O)C(=O)C(c2nc3ccccc3o2)C(=O)C1=O , please.
Key: > 100 µM

Reference source for all entries: PubChem BioAssay (NCI)
